Origin of values: patent US11718624B2

test: Distribution in rat brain and plasma after single oral dose; type: in vivo, Sprague Dawley rats; conditions: Sprague Dawley, rat; Male SD rats, single oral dose 100 mg/kg, plasma
property.label: Tmax (h)
Give the value, in units of h, as a plain number.

Give recorded Tmax. COc1ncnc(C2CC2)c1-c1ncc2cnn(Cc3ccc(-c4nc(C(F)(F)F)cn4C(C)C)cc3)c2n1 [Crystalline Form 2] 8

* * *

experiment: Mouse pharmacokinetic study, single oral dose, plasma; type: in vivo, NOD/SCID mice; details: female, NOD/SCID, mouse, plasma, po, 300 mg/kg, Mouse 11; single PO dose 300 mg/kg, plasma; read-out: Tmax
property.label: Tmax (min)
Give the value, in units of min, as a plain number.

Give recorded Tmax. COc1ncnc(C2CC2)c1-c1ncc2cnn(Cc3ccc(-c4nc(C(F)(F)F)cn4C(C)C)cc3)c2n1 [Crystalline Form 8] 30
